target: Sterol 24-C-methyltransferase (Candida albicans (strain SC5314 / ATCC MYA-2876) (Yeast), UniProt O74198); test: Inhibition of Candida albicans SC5314 Erg6
Sequence (O74198 whole entry): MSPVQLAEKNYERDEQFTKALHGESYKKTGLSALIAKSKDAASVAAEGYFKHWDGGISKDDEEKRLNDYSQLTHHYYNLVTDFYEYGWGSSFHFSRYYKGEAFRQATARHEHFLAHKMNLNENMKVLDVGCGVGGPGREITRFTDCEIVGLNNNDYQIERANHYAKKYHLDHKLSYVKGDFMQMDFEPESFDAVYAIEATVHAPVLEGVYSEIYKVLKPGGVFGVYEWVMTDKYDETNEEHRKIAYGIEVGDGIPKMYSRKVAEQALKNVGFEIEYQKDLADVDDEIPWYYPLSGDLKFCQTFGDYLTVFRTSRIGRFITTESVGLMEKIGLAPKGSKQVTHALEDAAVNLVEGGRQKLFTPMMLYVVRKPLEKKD
Readout kind: IC50
Answer with the number, then the unit.

Ask: Supply measured IC50 of C=C(CC[C@@H](CO)[C@H]1CC[C@@]2(C)C3=C(CC[C@]12C)[C@@]1(C)CC[C@@H](OC(=O)C[C@@](C)(O)CC(=O)O)C(C)(C)[C@@H]1CC3)[C@H](C)C(=O)O in your reply.
Result: 11.6 µM

* * *

biological target: Sterol 24-C-methyltransferase (Candida albicans (strain SC5314 / ATCC MYA-2876) (Yeast)); test: Inhibition of N-terminal His-tagged Candida albicans SC5314 Erg6 extracted from Escherichia coli BL21 (DE3) methyltransferase activity using zymosterol as substrate pre-incubated for 15 mins followed by substrate addition by liquid scintillation counter analysis
Readout kind: IC50 (nM)
Record the value in nM, omitting the unit from your answer.

Ask: Quickly give me recorded IC50 for Cc1c(-n2c(-c3ccc(Br)cc3)cs/c2=N\c2ccccc2)c(=O)n(-c2ccccc2)n1C
Result: 580
